Parameter normalised viability: see the listing below.
System: MDA-MB-468
Test: normalised viability (% of control), CellTiter-Blue; higher = more viable cells (100 = DMSO, 0 = benzethonium chloride kill control)
Details: incubation time: 72 h
Just the number in %, nothing appended.

- Molecule: "CC(C)C(=O)Nc1ccc([N+](=O)[O-])c(C(F)(F)F)c1 [Flutamide] (1 nM)"
  Target Entity: "MDA-MB-468"
  Result Unit: "%"
  normalised viability: 96.1
- Molecule: "CC/C(=C(\\c1ccccc1)c1ccc(OCCN(C)C)cc1)c1ccccc1 [Tamoxifen] (1 nM)"
  Target Entity: "MDA-MB-468"
  Result Unit: "%"
  normalised viability: 106
- Molecule: "NC(=O)c1cccc2cn(-c3ccc([C@@H]4CCCNC4)cc3)nc12 [MK-4827] (1 nM)"
  Target Entity: "MDA-MB-468"
  Result Unit: "%"
  normalised viability: 91.7

Value of measured normalised viability for the entry NC(=O)NO [Hydroxyurea] (10 nM) : 112

Value of measured normalised viability for the entry N[C@@H](Cc1ccc(N(CCCl)CCCl)cc1)C(=O)O [Melphalan] (0.099 nM) : 102

Value of measured normalised viability for the entry Cc1c(C(=O)Nc2ccc(N3C[C@@H](C)O[C@@H](C)C3)nc2)cccc1-c1ccc(OC(F)(F)F)cc1 [NVP-LDE225] (1 nM) : 129

Value of measured normalised viability for the entry Cc1c(N)nc([C@H](CC(N)=O)NC[C@H](N)C(N)=O)nc1C(=O)N[C@H](C(=O)N[C@H](C)[C@@H](O)[C@H](C)C(=O)N[C@H](C(=O)NCCc1nc(-c2nc(C(=O)NCCC[S+](C)C)cs2)cs1)[C@@H](C)O)[C@@H](OC1OC(CO)C(O)C(O)C1OC1OC(CO)C(O)C(OC(N)=O)C1O)c1cnc[nH]1 (stereo partly drawn) [Bleomycin] (1 nM) : 85.4

Value of measured normalised viability for the entry CC(C)C[C@H](NC(=O)[C@H](CCc1ccccc1)NC(=O)CN1CCOCC1)C(=O)N[C@@H](Cc1ccccc1)C(=O)N[C@@H](CC(C)C)C(=O)[C@@]1(C)CO1 [Carfilzomib] (0.1 nM) : 100

###

Test system: CAL-51
Test: normalised viability (% of control), CellTiter-Blue; higher = more viable cells (about 100 = DMSO control)
Conditions: incubation time: 72 h
Observation Type: normalised viability (%)
Just the number in %, nothing appended.

- Compound: "Nc1nc(Cl)nc2c1ncn2[C@@H]1O[C@H](CO)[C@@H](O)[C@@H]1F [Clofarabine] (10000 nM)"
  Observation Type: "normalised viability"
  Measurement: 12.4

Value of measured normalised viability for the entry N[C@@H](Cc1ccc(N(CCCl)CCCl)cc1)C(=O)O [Melphalan] (990 nM) : 68.8

Value of measured normalised viability for the entry NC(=O)c1cccc2cn(-c3ccc([C@@H]4CCCNC4)cc3)nc12 [MK-4827] (10000 nM) : 40.7

Value of measured normalised viability for the entry COc1cc2c(N3CCN(C(=O)Nc4ccc(OC(C)C)cc4)CC3)ncnc2cc1OCCCN1CCCCC1 [Tandutinib] (1000 nM) : 58

###

Test system: BT-474
Test: normalised viability (% of control), CellTiter-Blue; higher = more viable cells (about 100 = DMSO control)
Conditions: 100 nM; incubation time: 72 h
Parameter normalised viability: see the listing below.
Just the number in %, nothing appended.

# count of solved cases: 4
- Molecule: "COc1cc2c(N3CCN(C(=O)Nc4ccc(OC(C)C)cc4)CC3)ncnc2cc1OCCCN1CCCCC1 [Tandutinib]"
  Observation Type: "normalised viability"
  Measurement: 116
- Molecule: "CC[C@@H]1C(=O)N(C)c2cnc(Nc3ccc(C(=O)N[C@H]4CC[C@H](N5CCN(CC6CC6)CC5)CC4)cc3OC)nc2N1C(C)C [Volasertib]"
  Observation Type: "normalised viability"
  Measurement: 56.6
- Molecule: "CO[C@H]1C[C@@H]2CC[C@@H](C)[C@@](O)(O2)C(=O)C(=O)N2CCCC[C@H]2C(=O)O[C@H]([C@H](C)C[C@@H]2CC[C@@H](O)[C@H](OC)C2)CC(=O)[C@H](C)/C=C(\\C)[C@@H](O)[C@@H](OC)C(=O)[C@H](C)C[C@H](C)/C=C/C=C/C=C/1C [Sirolimus]"
  Observation Type: "normalised viability"
  Measurement: 75.1
- Molecule: "Cc1cc2c(F)c(Oc3ncnn4cc(OC[C@@H](C)O)c(C)c34)ccc2[nH]1 [Brivanib]"
  Observation Type: "normalised viability"
  Measurement: 117

Note to self: normalised viability of COc1cc2c(Oc3ccc(NC(=O)C4(C(=O)Nc5ccc(F)cc5)CC4)cc3F)ccnc2cc1OCCCN1CCOCC1 [Foretinib] with BT-474 was 117
